# Test Summary: JHH-DIPG-1 glioma cell viability, MIPE5.0 library, CellTiter-Glo luminescence, qHTS (AID 1347067);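 further: cells exposed to compound for 48 hours before readout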
# Condition Summary: JHH-DIPG-1 glioma viability, CellTiter-Glo ATP luminescence
Results filed as inconclusive are left out. Calls of active or inactive are those of the source. Cut-off not given; nearly all actives show AC50 up to about 26 µM.
Answer with one of the outcomes given here: active, inactive

Cc1ccc(-c2ncn(-c3ccc(Nc4nccc(-c5cccc(N6CCOCC6)c5)n4)cc3)n2)cn1 : active
COc1cc2c(Oc3ccc4[nH]c(C)cc4c3F)ncnc2cc1OCCCN1CCCC1 : active
CC1=C[C@@H]2[C@H]([C@@H](O)C[C@@]3(C)[C@H]2C[C@@H](C)[C@]3(O)C(=O)CO)[C@@]2(C)Cc3cnn(-c4ccccc4)c3C=C12 : active
C=C(C)[C@@H]1CC[C@]2(C)CC[C@]3(C)[C@H](CC[C@@H]4[C@@]5(C)CC[C@H](O)C(C)(C)[C@@H]5CC[C@]43C)[C@@H]12 : inactive
Nc1nc(=O)n([C@H]2C[C@H](O)[C@@H](CO)O2)cc1F : inactive
O=C1NC(O)CCN1[C@@H]1O[C@H](CO)[C@@H](O)[C@H]1O (some centres not stated) : inactive
COc1cc(N2CCC(N3CCN(C)CC3)CC2)ccc1Nc1ncc(Cl)c(Nc2ccccc2S(=O)(=O)C(C)C)n1 : active
COc1ccc(S(=O)(=O)NCc2ccc(C(=O)NCCc3ccc(Cl)cn3)cc2)cc1 : inactive

Query: Entry `O=C(Nc1c(Cl)cncc1Cl)c1ccc(OC(F)F)c(OCC2CC2)c1` : call = ?
Reply: inactive

Query: Assay outcome for `CC(C)c1c(-c2ccccc2)nc2c(C#N)c[nH]n2c1=O` : what was it?
Reply: inactive

Query: Write down the call the test reported for this compound. Item: O=C1OC(COc2ccccc2[N+](=O)[O-])CC1Cc1ccccc1 (configuration not stated)
Reply: inactive

Query: Lab log entry: `O=C([O-])C[O-].[Pt+2]` — outcome as called in the assay?
Reply: inactive

Query: What classification did `CCCCCCCOc1ccc(CCC(N)(CO)CO)cc1C(F)(F)F` end up with in this test?
Reply: active

Query: Test call, this compound: `CC(C)C[C@H](NC(=O)CNC(=O)c1cc(Cl)ccc1Cl)B(O)O`
Reply: active

Query: Each compound tested received a call. Report the one for `O=C(Nc1cc(Oc2cc(F)c(NC(=O)C3(C(=O)Nc4ccc(F)cc4)CC3)cc2F)ccn1)C1CC1` .
Reply: active

Query: In this assay, the call recorded for `CC(C)[C@](O)(c1ccc2cc(OC(F)F)c(OC(F)F)cc2c1)c1cn[nH]n1` was what?
Reply: inactive

Query: Outcome? `O=C(NC[C@H]1CN(c2ccc(N3CCOCC3=O)cc2)C(=O)O1)c1ccc(Cl)s1`
Reply: inactive

Query: Test call, this compound: `FC(F)(F)c1ccc(CNc2ccc(Cc3c[nH]c4ncccc34)cn2)cc1`
Reply: active

Query: Recorded test outcome, item `Cc1[nH]c(/C=C2\C(=O)Nc3ccc(F)cc32)c(C)c1C(=O)NC[C@H](O)CN1CCOCC1`
Reply: active

Query: Call for entry `CO[C@H]1C[C@@H]2CC[C@@H](C)[C@@](O)(O2)C(=O)C(=O)N2CCCC[C@H]2C(=O)O[C@H]([C@@H](C)C[C@@H]2CC[C@@H](O)[C@H](OC)C2)CC(=O)[C@H](C)/C=C(\C)[C@@H](O)[C@@H](OC)C(=O)[C@H](C)C[C@H](C)/C=C/C=C/C=C/1C` :
Reply: active

Query: Which outcome was assigned to `CC1=C(CO)C(=O)O[C@@H]([C@@H](C)[C@H]2CC[C@H]3[C@@H]4C[C@H]5O[C@]56[C@@H](O)C=CC(=O)[C@]6(C)[C@H]4CC[C@]23C)C1` in this test?
Reply: active

Query: Can you look up the reported call for `Cn1c(Nc2ccc(C(F)(F)F)cc2)nc2cc(Oc3ccnc(-c4ncc(C(F)(F)F)[nH]4)c3)ccc21` for me?
Reply: active
